Reference for the values: patent US10647710B2

test name: Pharmacokinetics of compounds in mice in vivo
condition notes: male, mouse, plasma; Balb/c mice, single intravenous injection 1.0 mg/kg
readout label: clearance (mL/min/kg)
Please state the figure in mL/min/kg; there is no need to write the unit.

I have this compound here, Cc1nc(N(C)C(=O)C2Cc3ccc(-c4ccccn4)cc3C2)sc1S(N)(=O)=O (single isomer, unassigned) , and I need its recorded clearance.
1.2

* * *

test name: Pharmacokinetics of compounds in mice in vivo
condition notes: male, mouse, in vivo; Balb/c mice, oral administration (gavage) 1.0 mg/kg; read-out: Concentration Integral AUC
readout label: AUC (µM·h)
Please state the figure in µM·h; there is no need to write the unit.

I have this molecule here, Cc1nc(N(C)C(=O)Cc2ccc(-c3ccccn3)cc2)sc1S(N)(=O)=O [Pritelivir, reference compound] , and I need its recorded AUC.
129

* * *

test name: Pharmacokinetics of compounds in mice in vivo
condition notes: male, mouse, plasma; Balb/c mice, oral administration (gavage) 1.0 mg/kg; read-out: Bioavailability F
readout label: bioavailability
Could you give the number and then its unit, please?

I have this compound here, Cc1nc(N(C)C(=O)C2Cc3ccc(-c4ccccn4)cc3C2)sc1S(N)(=O)=O (single isomer, unassigned) , and I need its recorded bioavailability.
75%

* * *

test name: Pharmacokinetics of compounds in mice in vivo
condition notes: male, mouse, in vivo; Balb/c mice, single intravenous injection 1.0 mg/kg
readout label: clearance (mL/min/kg)
Please state the figure in mL/min/kg; there is no need to write the unit.

I have this compound here, Cc1nc(N(C)C(=O)Cc2ccc(-c3ccccn3)cc2)sc1S(N)(=O)=O [Pritelivir, reference compound] , and I need its recorded clearance.
0.4
